# target entity: Cytochrome P450 2C19 (Homo sapiens)
# protocol details: Cytochrome panel assay with activity outcomes
# conditions: recombinant CYP, pro-luciferin dealkylation, luminescence, p450-cyp2c19; series mostly up to 57.1 µM
# Experimental: The P450 gene superfamily is involved in the metabolism and clearance of xenobiotics. This assay used various human CYP P450 isozymes to measure the dealkylation of various pro-luciferin substrates to luciferin. The luciferin is then measured by luminescence after the addition of a luciferase detection reagent. […] Inhibitors and some substrates limit the production of luciferin, and decrease measured luminescence. […] 8, Detection, 1 sec, ViewLux luminescent read […]
Hit rate of the full screen: of about 16,000 compounds, about 5,800 (36%) were called active. About 23% were inconclusive and are not listed. Calls come from the whole dose curve; as a rule, active = well fitted curve in the direction sought with a large enough effect; inconclusive = small, poorly fitted or top-dose-only effect, or effect the other way; inactive = no such curve, though single readings can be large or run the other way. The list shows a part of the results.
Pick one and only one: active, inactive

Observe how each entry below is paired with its result.
compound="CC1CCC(=NNC(=O)Cc2ccccc2)CC1 (stereo unspecified)" label_class=active
compound=Cc1cc(NC(=O)c2c(F)cccc2F)n(-c2nc3ccccc3[nH]2)n1 label_class=active
compound=O=C(Nc1ccc2ccccc2c1)[C@H]1C[C@@H]1[C@H](NP(=O)(c1ccccc1)c1ccccc1)c1ccccc1 label_class=active
compound="O=C(O)Cc1ccc(NC(=O)C2CCCCC2C(=O)O)cc1 (stereo unspecified)" label_class=inactive
compound=CN1CCC(=NNC(=O)CSCc2ccccc2)CC1 label_class=active

Q. Identify the outcome logged in this assay for the compound shown: `COc1cc(NC(=O)c2c(F)cccc2F)nc(OC)n1`
A. inactive

Q. # outcome recorded in this test, key = `Cc1ccc(S(=O)(=O)N2CCC(C(=O)NCCCOC(C)C)CC2)cc1`
A. inactive

Q. What is the recorded call for this compound in the test? CCCOc1ccc(Cn2c(C)nc([N+](=O)[O-])c2SCC(O)COC)cc1[N+](=O)[O-] (stereo unspecified)
A. active

Q. Recorded test outcome, item `Nc1nc2n[nH]nc2c(=O)[nH]1`
A. inactive

Q. # outcome recorded in this test, key = `Cc1cc(NC(=O)c2ccc(S(=O)(=O)N(C)C)cc2)n(-c2ccccn2)n1`
A. inactive

Q. What outcome does the record of this test show for `Cc1ccc(S(=O)(=O)N(C)c2cc(S(=O)(=O)N3CCC(C)CC3)c(C)cc2C)cc1` ?
A. active

----------
# target entity: Cytochrome P450 2C19 (Homo sapiens) (UniProt P33261)
# Sequence (P33261 whole entry, looked up): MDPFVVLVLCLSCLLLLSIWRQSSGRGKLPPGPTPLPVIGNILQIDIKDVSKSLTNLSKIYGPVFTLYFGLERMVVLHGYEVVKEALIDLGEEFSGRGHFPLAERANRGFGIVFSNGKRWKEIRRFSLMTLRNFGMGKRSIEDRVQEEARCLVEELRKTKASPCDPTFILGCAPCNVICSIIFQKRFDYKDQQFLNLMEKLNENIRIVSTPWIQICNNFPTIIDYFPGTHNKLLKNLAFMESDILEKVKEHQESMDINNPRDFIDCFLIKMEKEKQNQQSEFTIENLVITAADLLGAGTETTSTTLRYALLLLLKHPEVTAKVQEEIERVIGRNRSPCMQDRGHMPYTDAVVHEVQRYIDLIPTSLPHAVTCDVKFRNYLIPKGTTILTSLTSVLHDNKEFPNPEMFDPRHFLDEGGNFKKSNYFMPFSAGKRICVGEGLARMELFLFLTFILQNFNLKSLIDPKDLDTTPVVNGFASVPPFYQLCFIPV
# protocol details: Cytochrome panel assay with activity outcomes
# conditions: recombinant CYP, pro-luciferin dealkylation, luminescence, p450-cyp2c19; series mostly up to 57.1 µM
About 5,800 (36%) of roughly 16,000 compounds were called active. Inconclusive results (about 23%) are left out. The list shows a part of the results.
measurement type: AC50

compound=Cc1cc(C)n(C(=O)c2cc3ccccc3c(=O)o2)n1 measured="1.58 µM (active)"
compound="FC(F)(F)c1cccc(N2CCN(CC3CC4C=CC3C4)CC2)c1 (stereo unspecified)" measured="8.91 µM (active)"
compound="O=C(Nc1ccccc1)N(Cc1ccccc1)CC(O)C(F)(F)F (stereo unspecified)" measured="5.01 µM (active)"
compound="CCCCOC(=O)C1=C(C)Nc2ncnn2C1c1cc(OC)ccc1OC (stereo unspecified)" measured="20 µM (active)"
compound=CCOC(=O)c1c(C)c(C(=O)NCCN2CCOCC2)c(C)n1CC measured=inactive

Then there is this compound:
For `COc1ccc(-n2c(CNC(=O)c3ccc(S(=O)(=O)N4CCCC4)cc3)n[nH]c2=S)cc1` the compound record lists AC50 as inactive

----------
# target entity: Cytochrome P450 2C19 (Homo sapiens)
# protocol details: Cytochrome panel assay with activity outcomes
# conditions: recombinant CYP, pro-luciferin dealkylation, luminescence, p450-cyp2c19; series mostly up to 57.1 µM
Screen size: about 16,000 compounds; about 5,800 (36%) were called active. About 23% were inconclusive and are not listed. Calls follow the shape of the dose curve; as a rule, active = well fitted curve in the direction sought with a large enough effect; inconclusive = small, poorly fitted or top-dose-only effect, or effect the other way; inactive = no such curve, though single readings can be large or run the other way. This is one part of the list.
Just give me one of these, please: active, inactive

Take a look at these entries with their results.
chemical_smiles=COc1ccc(C(=O)NNC(=S)NC(=O)c2ccco2)cc1 target_entity="Cytochrome P450 2C19 (Homo sapiens)" label_class=inactive
chemical_smiles=COc1ccc(C(=O)NC(=S)NCc2ccccc2)cc1 target_entity="Cytochrome P450 2C19 (Homo sapiens)" label_class=active

Q. For `CC(C)(C)C(=O)NC(=S)NCCc1ccccc1` , what call appears in the results of this test?
A. active

Q. Test call, this molecule: `CC(=O)N1CCC[C@@]2(CCN(c3ncccn3)C2)C1`
A. inactive

Q. Entry `COc1ccc(C(=O)NCc2ccc(-c3nc4ccccc4s3)cc2)cc1` : call = ?
A. active

Q. Per the records of this test, what outcome belongs to `CCOC(=O)c1sc(NC(=O)CSc2nc(C)cc(C)c2C#N)c(C#N)c1C` ?
A. active

----------
# target entity: Cytochrome P450 2C19 (Homo sapiens) (UniProt P33261)
# protocol details: Cytochrome panel assay with activity outcomes
# conditions: recombinant CYP, pro-luciferin dealkylation, luminescence, p450-cyp2c19; series mostly up to 57.1 µM
The whole screen tested about 16,000 compounds, of which about 5,800 (36%) were called active. Roughly 23% stayed inconclusive and do not appear here. The list shows a part of the results.
measurement type: AC50

compound=COc1ccccc1OC[C@H](O)COC(N)=O measured=inactive
compound=Cc1ccc2nc(-c3ccccc3)cc(C(=O)NCCCn3ccnc3)c2c1 measured="2 µM (active)"
compound="CCCC[C@@H]1C[C@H]1C(NC(=O)c1ccccc1)c1ccc(Cl)cc1 (some centres not stated)" measured="0.631 µM (active)"
compound=CN(C)c1ncc2nc(CCc3ccccc3)c(=O)n(Cc3ccc(F)cc3)c2n1 measured="0.794 µM (active)"

Input `COCC(=O)N1CCC2(CC1)CCN(C(=O)NC(C)C)CC2` . Output AC50: inactive

The compound `C=CCOc1ccccc1OC[C@H](O)CNC(C)C` showed AC50 equal to inactive

Form: compound = `COc1ccccc1CNC(=O)c1cc2c(C)nn(Cc3ccc(F)cc3)c2s1` ; AC50 = 11.2 µM (active)

Record COC(=O)CCSc1cc([N+](=O)[O-])cc2c1c(C1OCCS1)nn2-c1ccccc1 (configuration not stated) . Reported AC50: 25.1 µM (active)

AC50 in this record for `CN(C)c1ncc2nc(-c3cc(F)cc(F)c3)c(=O)n(CCc3ccccc3)c2n1` : inactive

Recorded result, `CCc1nnc(NC(=O)CCC(=O)NCc2ccccc2OC)s1` , AC50: inactive

`COc1ccc(O[C@H]2C=C[C@@H](c3ccccc3)O[C@H]2COC(=O)CC/C(C)=N\O[C@@H](C)c2cn([C@H]3COC[C@H]3O)nn2)cc1` yielded AC50 of 2.51 µM (active)

Just so you know, measured AC50 for `COc1ccc(Nc2cc(C(=O)NCCCN3CCN(C)CC3)c3ccccc3n2)cc1` came out at inactive

// CCCC[C@@H]1C[C@H]1C(NC(=O)c1cccnc1)c1ccc(Cl)cc1 (some centres not stated) : AC50 value = 2 µM (active)

Lab note: measured AC50 of `CCCn1nc2cc(C(=O)NCc3ccccc3OC)ccc2c1OCC` was 20 µM (active)

Quick note, AC50 for `C[C@H](C(=O)O)c1cccc(Oc2ccccc2)c1` landed at inactive

Short answer for `CN(C)c1ncc2nc(-c3cccs3)c(=O)n(Cc3cccs3)c2n1` : AC50 was inactive

Value of AC50 reported for the compound `CC1(C)CCCN(C(=O)c2coc(=O)c(Br)c2)C1` is inactive

----------
# target entity: Cytochrome P450 2C19 (Homo sapiens) (UniProt P33261)
# protocol details: Cytochrome panel assay with activity outcomes
# conditions: recombinant CYP, pro-luciferin dealkylation, luminescence, p450-cyp2c19; series mostly up to 57.1 µM
# Description: The P450 gene superfamily is involved in the metabolism and clearance of xenobiotics. This assay used various human CYP P450 isozymes to measure the dealkylation of various pro-luciferin substrates to luciferin. The luciferin is then measured by luminescence after the addition of a luciferase detection reagent. […] Inhibitors and some substrates limit the production of luciferin, and decrease measured luminescence. […] 8, Detection, 1 sec, ViewLux luminescent read […]
Among all 16,000 compounds or so, about 5,800 (36%) were called active. About 23% were inconclusive and are not listed. The list shows a part of the results.
measurement type: AC50

Recorded AC50, per entry:
molecule=COc1cc(CC(=O)O)ccc1O target_entity="Cytochrome P450 2C19 (Homo sapiens) (UniProt P33261)" measured=inactive
molecule=CN(CC(=O)O/N=C(\N)c1ccccn1)S(=O)(=O)c1ccccc1 target_entity="Cytochrome P450 2C19 (Homo sapiens) (UniProt P33261)" measured=inactive
molecule=CC(C)NC[C@H](O)c1cc(O)cc(O)c1 target_entity="Cytochrome P450 2C19 (Homo sapiens) (UniProt P33261)" measured=inactive
molecule=Cc1cn2c(-c3ccncc3)nnc2s1 target_entity="Cytochrome P450 2C19 (Homo sapiens) (UniProt P33261)" measured=inactive
molecule=Cc1cccc(CSCCNC(=O)c2ccc(N(C)S(=O)(=O)c3ccccc3)cc2)c1 target_entity="Cytochrome P450 2C19 (Homo sapiens) (UniProt P33261)" measured="1120 nM (active)"
molecule=O=C1Cc2c([nH]c3ccc(Br)cc23)-c2ccccc2N1 target_entity="Cytochrome P450 2C19 (Homo sapiens) (UniProt P33261)" measured=inactive

molecule `COc1ncc2nc(-c3cc(F)cc(F)c3)c(=O)n(C3CC3)c2n1` , AC50 observed: inactive

// field: AC50; key: `N#Cc1ccc(CN2CCC3(CC2)CCN(C(=O)c2ccncc2)CC3)cc1` ; value = inactive

Note to self: AC50 recorded for CCCCN1C(=O)CC(Sc2ccccc2C(=O)O)C1=O (stereo not given) was inactive

`Cc1nc(S(=O)(=O)N(C)c2ccccc2)c(C#N)c(C)c1Cl` has a reported AC50 of 6310 nM (active)

Please fill in: AC50 reported for `CN1CCN(c2nc(-c3ccccc3)cc(C(F)(F)F)n2)CC1` = 8910 nM (active)
